growth values for the molecules below.
system: MALME-3M melanoma; assay: NCI-60 one-dose screen, 48 h (100 = growth as untreated, 0 = no growth, -100 = all killed); settings: 10 µM unless noted
Compounds without any hit were thinned out: in the full panel of roughly 83,000, 20% have a hit.
Give the value in % but do not write % after it.

Oc1[nH]c2ccc(Cl)cc2c1/C=c1/ccc2c(c1)N=C(c1ccc(C(F)(F)F)cc1)N=2 = 69.2
O=C(c1nn(-c2ccc(Cl)cc2)cc1O)n1nc(C(F)(F)F)cc1-c1ccccc1 = 107
COc1cc(Oc2cc(-c3cccnc3)ccc2NC(=O)Nc2ccc(F)cc2F)cc(OC)c1OC = 105
[O-]/[N+](=C\C=C\c1ccccc1)c1ccccc1 = 158
CCCCCCC/C(=N\N=C(N)N)c1ccc(O)cc1 = 50.6
C=C1c2c(C)nn(-c3ccc(C#CCOC4OC(CO)C(O)C(O)C4O)cc3)c2N(C)C23C[C@H]1C1(C)c4c(C)nn(-c5ccc(C#CCOC6OC(CO)C(O)C(O)C6O)cc5)c4N(C)C(C)(C[C@H]12)C3 (stereo partly specified) = 5.2
CSc1ncc2ncn(C3OC(CO)C(O)C3O)c2n1 (stereo unspecified) = 126
Cc1ccc2c(c1)O/C(=C\c1ccc([N+](=O)[O-])o1)C2=O = -10.5
Cc1nnc(Nc2ccc(NC(=O)Nc3ccc(Cl)cc3)cc2)c2ccccc12 = -9.9
Oc1ccc(-c2nn(-c3ccccc3)cc2-c2nc3ccccc3s2)cc1 = 98.8

Query: Look up and report measured growth (MALME-3M melanoma) for the following molecule: COc1cccc(-c2nnc(N)o2)c1
Response: 106

Query: Look up and report measured growth (MALME-3M melanoma) for the following molecule: COc1cc2c(c(OC)c1OC)CCc1cnoc1-2
Response: 100

Query: Look up and report measured growth (MALME-3M melanoma) for the following molecule: COc1ccc(-c2cc(Cc3cccs3)c(=O)n(Cn3ccc4ccccc43)n2)cc1
Response: 106

Query: Look up and report measured growth (MALME-3M melanoma) for the following molecule: c1ccc(-c2nn[nH]n2)c(-c2ccc(CN3CCN(c4nsc5ccccc45)CC3)cc2)c1
Response: 108

Query: Look up and report measured growth (MALME-3M melanoma) for the following molecule: CCN1CCN(c2cc(-c3cn[nH]c3-c3cc(C)cc(OC)c3)nc(-c3cccnc3)n2)CC1
Response: 91.9

Query: Look up and report measured growth (MALME-3M melanoma) for the following molecule: COc1cc(C2NC(c3ccc(Cl)cc3)C(C)C(=NC(=O)c3cnccn3)C2C)cc(OC)c1OC (stereo unspecified)
Response: 79.8

Query: Look up and report measured growth (MALME-3M melanoma) for the following molecule: C=Cc1nn2c(CCC(=O)c3nc4ccccc4[nH]3)nnc2s1
Response: 108

Query: Look up and report measured growth (MALME-3M melanoma) for the following molecule: COc1ccc(-c2nn(-c3ccccc3)cc2/C=C2\SC(=S)N(CCc3ccc(O)cc3)C2=O)cc1
Response: 85.1

Query: Look up and report measured growth (MALME-3M melanoma) for the following molecule: c1cncc(CNc2ccccc2-c2nnc(Nc3ccc4c(c3)OCO4)o2)c1
Response: 32.1

Query: Look up and report measured growth (MALME-3M melanoma) for the following molecule: CCC(O)C(C)(C)C (stereo unspecified)
Response: 117

Query: Look up and report measured growth (MALME-3M melanoma) for the following molecule: CCOC(=O)c1c2c(c(C)n1Cc1ccccc1)-c1nc(N)ncc1CC2
Response: 168

Query: Look up and report measured growth (MALME-3M melanoma) for the following molecule: COc1cc(OC)c2cc(C(=O)O)c(=O)oc2c1
Response: 113

Query: Look up and report measured growth (MALME-3M melanoma) for the following molecule: NCCCc1nnc(CCC(=O)c2nc3ccccc3[nH]2)o1
Response: 82.2

Query: Look up and report measured growth (MALME-3M melanoma) for the following molecule: CC(=O)NC1(C(=O)O)CCCC1
Response: 135

Query: Look up and report measured growth (MALME-3M melanoma) for the following molecule: CCCCCCCCSc1ncnc2c1ncn2CO
Response: 118

Query: Look up and report measured growth (MALME-3M melanoma) for the following molecule: Clc1ncn[nH]1
Response: 103

Query: Look up and report measured growth (MALME-3M melanoma) for the following molecule: COc1c(C)c2c(c(O)c1C/C=C(\C)CCC(=O)OCCN1CCOCC1)C(=O)OC2
Response: 38.8

Query: Look up and report measured growth (MALME-3M melanoma) for the following molecule: O=C(/C=C/c1cccnc1)/C=C/c1cccnc1
Response: -8.19

Query: Look up and report measured growth (MALME-3M melanoma) for the following molecule: CC[C@H](C)C(=O)O[C@H]1C[C@@H](C)C=C2C=C[C@H](C)[C@H](CC[C@@H]3C[C@@H](O)CC(=O)O3)[C@H]21
Response: 89.7

Query: Look up and report measured growth (MALME-3M melanoma) for the following molecule: O=C1/C(=C/c2ccc3cccc(Cl)c3n2)SC(=S)N1CCc1ccc(O)cc1
Response: 74.7

Query: Look up and report measured growth (MALME-3M melanoma) for the following molecule: O=C1C2C3C=CC(O3)C2C(=O)N1Nc1ccccc1 (stereo unspecified)
Response: 120
